target: HCV polymerase (Hepatitis C virus genotype 1a); construct: a particularly preferred RNA polymerases is the HCV NS5B polypeptide; experiment: GpC dinucleotide-primed RNA synthesis; format: biochemical
Sequence (P27958 2421-3011): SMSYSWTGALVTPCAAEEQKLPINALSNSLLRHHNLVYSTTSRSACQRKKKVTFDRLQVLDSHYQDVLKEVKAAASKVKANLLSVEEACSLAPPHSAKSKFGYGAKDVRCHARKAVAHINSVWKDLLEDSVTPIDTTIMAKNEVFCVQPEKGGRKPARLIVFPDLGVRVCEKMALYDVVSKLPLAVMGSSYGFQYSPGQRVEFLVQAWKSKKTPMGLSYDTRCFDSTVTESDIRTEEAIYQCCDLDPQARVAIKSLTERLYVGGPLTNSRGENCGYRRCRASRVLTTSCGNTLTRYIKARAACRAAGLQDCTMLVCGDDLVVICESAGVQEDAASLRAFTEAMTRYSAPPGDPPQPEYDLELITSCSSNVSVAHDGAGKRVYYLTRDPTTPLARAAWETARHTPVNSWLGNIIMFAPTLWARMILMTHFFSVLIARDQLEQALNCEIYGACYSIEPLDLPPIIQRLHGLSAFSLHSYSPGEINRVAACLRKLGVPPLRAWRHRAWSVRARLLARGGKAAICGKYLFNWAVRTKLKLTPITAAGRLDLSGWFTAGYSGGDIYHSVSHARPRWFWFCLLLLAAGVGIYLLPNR
OUTCOME MEASURE: IC50 (µM)
Write the value in µM as a bare number.

[ask] Recorded IC50 of COC1C(OP(O)(=S)OCC2CC(O)C(n3ccc(N)nc3=O)O2)C(COP(=O)(O)O)OC1n1cnc2c(=O)[nH]c(N)nc21 (centres unmarked) , please.
[reply] 50

The measured values listed here are drawn from patent US20060074035A1.
